- System: PF-4840154-induced mechanical hyperalgesia in rats
- experiment-description: Agonist (PF-4840154)-induced mechanical hyperalgesia in rats
- Assay type: in vivo
- test-context: Rattus norvegicus, 30 μmol/kg oral, PF-4840154 0.05 nmol/50 μl/paw intraplantar, read-out: % of reversal of mechanical allodynia
Listing of recorded inhibition in vivo at 30 µmol/kg by entry.
endpoint-label: inhibition in vivo at 30 µmol/kg (%)

C=C(C(=O)NCc1cc(-c2ccc(C(F)(F)F)cc2)nc(N(C)C)c1)N(CC)S(=O)(=O)c1ccc(F)cc1 [Example 37]	95
CCN(C1(C(=O)NCc2cccc(-c3ccc(C(F)(F)F)cc3)c2)CC1)S(=O)(=O)c1ccc(Cl)cc1 [Example 30]	82
C=C(C(=O)NCc1cc(-c2ccc(C(F)(F)F)cc2)nc(N2CCCC2)c1)N(CC)S(=O)(=O)c1ccc(Cl)s1 [Example 15]	72
C=C(C(=O)NCc1cccc(-c2ccc(OC(F)(F)F)cc2)c1)N(CC)S(=O)(=O)c1ccc(F)cc1 [Example 11]	72
C=C(C(=O)NCc1cc(-c2ccc(C(F)(F)F)cc2)nc(N2CCCC2)c1)N(CC)S(=O)(=O)c1ccc(Cl)cc1 [Example 14]	75
C=C(C(=O)NCc1cc(-c2ccc(C(F)(F)F)cc2)nc(-c2ccc(C(F)(F)F)cc2)c1)N(CC)S(=O)(=O)c1ccc(Cl)cc1 [Example 19]	74
CCN(C1(C(=O)NCc2ccnc(-c3ccc(OC(F)(F)F)cc3)c2)CC1)S(=O)(=O)c1ccc(F)cc1 [Example 26]	64
